Target: HA of H3N2 A/Brisbane/10/2007 (influenza A virus)
Assay: cell-based or functional assay
REPORTED PROPERTY: VNA titer

{"BINDER": "SD1018 (VHH) VHH: EVQLVESGGGLVQAGGSLRLSCAASGQTYHMGWFRQTPGNERESVAAVTWSGAVTRYADSVKGRFTISRDNAKNTVYLQMNSLVPEDTAIYYCAATRSMAPIIQLSPGSYDYWGPGTQVTVSS", "READING": "> 1000 nM"}
{"BINDER": "SD1049 (VHH) VHH: EVQLVESGGGLVQAGGSLRLSCAASGRTLSLYSVGWFRQAPGKEREFVATIGWNSGRTFYVDSMKGRFTISRDNAKNTVYLQMNDLKVEDTAVYYCAAAKGPLRLSNQADYWGQGTQVTVSS", "READING": "19.1 nM"}
{"BINDER": "SD1073 (VHH) VHH: EVQLVESGGGLVQAGGSLRLSCAASGSAFSIAAMGWYRQAPGKQRELVATITTGGSTNYADSVKGRFTISRDNSKNTAYLQMNSLKPEDTAVYYCTAKSVVAETFGDLYNYWGQGTQVTVSS", "READING": "> 1000 nM"}
{"BINDER": "SD1025 (VHH) VHH: EVQLVESGGGLVQAGGSLRLSCAASGRTYAMAWFRQAPGKEREFVAHINALGTRTYYSDSVQGRFTISRDNAKNTEYLQMNSLKPEDTAVYYCAAGGQWRAAPVADAAQYDFWGQGTQVTVSS", "READING": "> 1000 nM"}
{"BINDER": "SD1072 (VHH) VHH: EVQLVESGGGLVEAGGSLRLSCAVSGRTFSMYATGWFRQAPGKEREFVAAINSSGDKTTYADSVEGRFTISRDIGTVYLQMNNLNPEDTAVYYCAAARTLAVVTIPGGYEYWGQGTQVTVSS", "READING": "> 1000 nM"}
{"BINDER": "SD1071 (VHH) VHH: EVQLVESGGGLVQTGESLRLSCAFSGFTYSTYWMYWVRQGPEKGLKWVSSTNAAGTVTYYAANVRDRFTASKDNAKNTLYLQMNRLKPEDTGLYYCASKDGLIVAATLDDYDYRGQGTQVTVSS", "READING": "> 1000 nM"}
{"BINDER": "SD1074 (VHH) VHH: EVQLVESGGGLVQAGGSLRLSCAASRNFDAIGAMGWYRQAPGKQRELVAEITSDGSTNYTDSVKGRFTISRDNALRTMYLQMNALEPEDTAVYYCKADISIYGLTNFPYWGQGTQVTVSS", "READING": "> 1000 nM"}
{"BINDER": "SD1048 (VHH) VHH: EVQLVESGGGVVQPGGSLRLSCVASGRTSSMYSIGWFRQAPGKEREFVAVIGWYSGRTFYTDSMKGRFTISRDNARNTVYLQMNSLKPEDTAVYYCAAANGPLRLSNQADYWGQGTQVTVSS", "READING": "19.5 nM"}
{"BINDER": "SD1027 (VHH) VHH: EVQLVESGGGMVQAGGSLRLSCAASGGTFSLYHMGWFRQAPGEEREFVAAISGSGGNTYYADSVKGRFTISRDNNKNTVYLQMSSLEPEDTAVYFCAAMKWPGILRDANAYDYWGQGTQVTVSS", "READING": "> 1000 nM"}
